Attribution: PubChem BioAssay

# Assay remarks: probe aLAP1 signal on lysate-treated microarray – cell lysate, small-molecule microarray, COS7 lysate, primary screen (AID 1124);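 note: lysate comes from COS7 cells expressing LAP1 and is applied at 0.3 µg/mL; score merges spot fluorescence near 667 nm with signal-to-noise over triplicate slides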
# Measurement conditions: probe aLAP1, fluorescence, higher = more signal
Assay metric: composite z-score
Give bare numbers.

Some solved cases for reference:
Compound	composite z-score
CCCCC(O)C1C=CC2C(=O)N(c3ccccc3)C(=O)C2N1Nc1ccc([N+](=O)[O-])cc1 (stereo not drawn)	0.738
CCCNC(=O)[C@@]1(c2ccc([N+](=O)[O-])cc2)CC(=O)N(C(C)C)[C@@H]1c1ccc(CO)cc1	0.188
CCC(CC)C(O)C1C=CC2C(=O)N(c3ccccc3)C(=O)C2N1Nc1ccccc1F (stereo not drawn)	0.261
C=CCN1C(=O)[C@]2(O[C@H](CCn3cc([C@H](O)c4ccccc4)nn3)[C@@H]([Si](C)(C)c3ccc(OC)cc3)[C@@H]2C)c2cc(NC(=O)c3ccc(OC)cc3)ccc21	-0.182
C=CCC(OC(C)=O)[C@@H]1[C@@H](N(Cc2cc3ccccc3o2)C(=O)c2cccc3ccccc23)c2cc(OCCCO)ccc2N1C(=O)c1ccc2ccccc2n1 (stereo partly drawn)	0.637

Required: composite z-score, one value per compound below.
1. CCCCCC1=C2CNC(Cc3ccccc3)(C(=O)OC)C=C2C(C)C1=O (stereo not drawn)
2. Cc1ccc(S[C@]2(C(=O)NC3CC3)CC(=O)N(C(C)C)[C@@H]2c2ccc(CO)cc2I)cc1
3. CC(C)C(O)C1C=CC2C(=O)NC(=O)C2N1Nc1ccccn1 (stereo not drawn)

RESULT:
1. 0.984
2. 0.048
3. 0.331

###

# System: Lefty1
# Assay remarks: Lefty1 protein binding to printed compounds – biochemical, small-molecule microarray, 635/667 nm fluorescence, primary screen (AID 1139)
# Measurement conditions: fluorescence 635/667, higher = more signal
Tick condition met if composite z-score is 0.6 or greater. Tick condition not met if composite z-score is less than 0.6.

Molecule	Class label
C=CCOC(=O)[C@@H]1[C@H]2C(=O)O[C@H](c3ccccc3)[C@H](c3ccccc3)N2[C@H](c2ccc(OCCOC(=O)[C@H]3C[C@H]4C(=O)N[C@@H](CCCCN(C)C)C(=O)N4[C@H]3c3ccc(O)cc3)cc2)[C@@]12C(=O)Nc1ccc(I)cc12	condition met
CN1C(=O)[C@@H]2[C@@H](CC(COc3ccccc3)=C3[C@@H](CCc4ccccc4)OB(O)C[C@@H]32)C1=O	condition not met
COc1ccc([Si](C)(C)[C@H]2[C@H](CCO)O[C@@]3(C(=O)N(Cc4cccc(N(C=O)c5ccccc5)c4)c4ccccc43)[C@@H]2C)cc1	condition met
CN(C)c1ccc(C(O)C2C=CC3C(=O)N(Cc4ccccc4)C(=O)C3N2n2cnnc2)cc1 (stereo unspecified)	condition not met
CCOC(=O)C1=CC[C@@H](c2ccc(OC)cc2)N(S(=O)(=O)c2ccc(C)cc2)[C@H]1c1ccc(C)cc1	condition not met

Now look at this entry.
QUERY: Check if composite z-score >= 0.6 (inclusive). Item: CCOC(=O)C[C@H]1[C@H](OC(=O)Cc2ccc3c(c2)OCO3)[C@@H](NC(=O)c2ccc3ccccc3n2)c2cc(OCCCO)ccc2N1C(=O)Cc1ccc(OC)cc1
RESULT: condition not met

###

Would you kindly list composite z-score for each of these compounds?
# Assay remarks: small molecules captured by biotinylated probe aFGF10 – biochemical, small-molecule microarray, fluorescence 635/667, stem cell growth factor project, primary screen (AID 1071);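 note: score merges 667 nm spot intensity and signal to noise from triplicate slides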
# Measurement conditions: higher = more signal
Give bare numbers.

Example cases with answers are listed next.
Compound	Test value
CN(C)C(=O)[C@@]1(Cc2ccccc2CN=[N+]=[N-])COC(c2ccc(OCCCO)cc2)=N1	-0.0663
CC1CC/C=C\[C@H]2OC34C=CCN(c5ccc6ccccc6c5)C(=O)[C@H]3N(C(C)CO)C(=O)[C@@H]4C2C(=O)O1 (some centres not stated)	-0.489
COC(=O)C(CC#Cc1ccc2c(c1)[C@]1(C(=O)N2)[C@H](c2ccccc2OCCO)N2[C@H](c3ccccc3)[C@H](c3ccccc3)OC(=O)[C@H]2[C@@H]1C(=O)N1CCc2cc(OC)c(OC)cc2C1)C(=O)OC	0.382
CC(C)[Si](C#CCCc1ccccc1)(O[C@H](c1ccccc1)c1cn(Cc2ccccc2)nn1)C(C)C	0.529
CC(C)C(=C=CC[C@H](O)c1ccccc1OCCO)C[C@H](O)COCc1ccccc1	0.483

Hi, could you look up composite z-score for each item in my list?
1. COCCCNC(=O)[C@@]1(CCS(=O)(=O)c2ccccc2)COC(c2ccc(OCCCO)cc2)=N1
2. CCN(CC)c1ccc(N2CC=CC34O[C@@H]5C=CCCOC(=O)C5[C@H]3C(=O)N(C(C)CO)[C@@H]4C2=O)cc1 (some centres not stated)
3. C[C@@H]1NC(=O)C([C@@H](C)OCc2ccccc2)NC(=O)[C@@]23C(=O)N[C@@H](Cc4ccccc4)C2[C@H](C)[C@@]2(C)O[C@H]2C3/C=C/C/C=C\CNC1=O (some centres not stated)
4. COCCCNC(=O)[C@@]1(Sc2ccc(C)cc2)CC(=O)N(Cc2ccccc2C(F)(F)F)[C@@H]1c1ccc(CO)cc1I
5. CCCCC(O)C1C=CC2C(=O)N(c3ccccc3)C(=O)C2N1Nc1ccc(C#N)cc1 (configuration not stated)
6. C=CCC(OC(C)=O)[C@@H]1[C@@H](N(Cc2cccc3ccccc23)C(=O)Cc2ccc(OC)cc2)c2cc(OCCCO)ccc2N1C(=O)c1ccc2ccccc2c1 (some centres not stated)
7. COCCOC(=O)N1C(=O)[C@@]2(c3cc(C#CCNC(N)=O)ccc31)[C@H](C(=O)Nc1nc3ccccc3s1)[C@H]1C(=O)O[C@H](c3ccccc3)[C@H](c3ccccc3)N1[C@@H]2c1ccccc1OCCO

RESULT:
0.529
-0.227
0.341
-2.12
0.226
0.113
0.475

Look at each compound and report its composite z-score.
1. CN(C)CCCC[C@@H]1NC(=O)[C@@H]2C[C@H](C(=O)NCCCCCN)[C@H](c3cccc(OCCO)c3)N2C1=O
2. COc1ccc(C(O)C2C=CC3C(=O)NC(=O)C3N2Nc2ccc(Cl)cc2Cl)c2ccccc12 (configuration not stated)

RESULT:
0.549
0.273

// input: 8 compounds below; output: composite z-score for each
1. C[C@@H]1ON(c2ccc(I)cc2)[C@H](c2cccc(NC(=O)OCC3c4ccccc4-c4ccccc43)c2)[C@H]1C(=O)N1C(=O)OC[C@H]1Cc1ccccc1
2. CCOC(=O)C[C@H]1[C@H](OC(=O)c2cc3ccccc3oc2=O)[C@@H](NC(=O)CC(C)C)c2cc(OCCCO)ccc2N1C(=O)Cc1ccc(OC)cc1
3. CCCC[C@H]1OB(O)C[C@H]2C1=C(COc1ccccc1)C[C@H]1C(=O)C=CC(=O)[C@H]12
4. C=C1C(=O)C=C2CN(C(=O)c3ccccc3)[C@@](Cc3ccc(OC)cc3)(C(=O)OC)[C@@H]12
5. NC(=O)NCC#Cc1ccc2c(c1)[C@]1(C(=O)N2)[C@H](c2ccc(OCCO)cc2)N2[C@H](c3ccccc3)[C@H](c3ccccc3)OC(=O)[C@H]2[C@@H]1C(=O)NC[C@H](O)c1ccccc1
6. [N-]=[N+]=Nc1ccccc1C[C@]1(C(=O)N2CCOCC2)N=C(c2ccc(OCCCO)cc2)O[C@H]1c1ccccc1N=[N+]=[N-]
7. CC(C)NC(=O)[C@@H]1c2ccccc2C(=O)N(Cc2ccccc2C(F)(F)F)[C@H]1c1ccc(CO)cc1
8. C=CCC(OC(C)=O)[C@@H]1[C@@H](N(Cc2ccc(-c3cccc(C(F)(F)F)c3)o2)C(=O)c2ccc(-c3ccccc3)cc2)c2cc(OCCCO)ccc2N1C(=O)c1ccc2ccccc2c1 (some centres not stated)

RESULT:
1: 0.15; 2: 0.499; 3: 0.603; 4: 1.01; 5: 0.029; 6: 0.499; 7: -0.0635; 8: -0.117
